- PROCEDURE_DETAILS: Tissue concentrations of Formula I and its metabolites in Göttingen pigs after a single oral or intravenous dose (LC-MS/MS)
- Format: in vivo
- CONDITIONS: both sexes, Göttingen, pig (minipig); liver; single oral dose of Formula I 125 mg/kg; 24 hpd; read-out: Tissue concentration, liver
Provide the recorded concentration at 24 h for the entries that follow.
Report as a plain number; the unit ng/g is understood.

The recorded concentration at 24 h for entry C[C@@]1(O)[C@H](O)[C@@H](CO)O[C@H]1n1ccc(=O)[nH]c1=S equals 1120

The recorded concentration at 24 h for entry CC1(O)[C@@H](O)[C@@H](COP(=O)(O)O)O[C@H]1n1ccc(=O)[nH]c1=S (stereo partly drawn) equals 190

The recorded concentration at 24 h for entry C[C@H](NP(=O)(O)OC[C@H]1O[C@@H](n2ccc(=O)[nH]c2=S)C(C)(O)C1O)C(=O)O (stereo in doubt) equals 45.6
